- targetOrSystem: mitochondrial DNA primase (LdmtPRI1) (Leishmania donovani, UniProt A0A3S7WXR7)
- Construct: gene LdCL_230015100; recombinant histidine-tagged LdmtPRI1 (pET28a), purified from E. coli BL21
- Sequence (A0A3S7WXR7 1-533): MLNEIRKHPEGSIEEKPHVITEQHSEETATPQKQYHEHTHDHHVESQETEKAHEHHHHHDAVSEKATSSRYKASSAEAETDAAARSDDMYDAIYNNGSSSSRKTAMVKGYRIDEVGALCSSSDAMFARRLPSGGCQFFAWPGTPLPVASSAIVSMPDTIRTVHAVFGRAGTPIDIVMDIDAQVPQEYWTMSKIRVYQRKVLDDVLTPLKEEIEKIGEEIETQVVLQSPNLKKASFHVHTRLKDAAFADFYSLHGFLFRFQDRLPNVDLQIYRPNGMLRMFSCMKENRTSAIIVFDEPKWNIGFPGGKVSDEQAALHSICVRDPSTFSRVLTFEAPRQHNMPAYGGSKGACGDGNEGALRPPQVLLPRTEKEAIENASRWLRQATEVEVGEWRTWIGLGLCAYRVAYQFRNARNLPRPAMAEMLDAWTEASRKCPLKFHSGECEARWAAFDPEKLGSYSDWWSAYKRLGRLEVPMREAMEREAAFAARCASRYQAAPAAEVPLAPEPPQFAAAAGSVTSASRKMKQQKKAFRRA
- experimentalDetails: coupled primase-pyrophosphatase malachite green assay, purified enzyme
- Type: biochemical
pIC50: −log10 of the molar value.
measuredEndpoint: pIC50

May I ask what pIC50 has been recorded for CCCCCOC(=O)Nc1nc(=O)n([C@@H]2O[C@H](C)[C@@H](O)[C@H]2O)cc1F [capecitabine] ?
7.82

Here is the next compound: C/C(=C(\CCOP(=O)(O)O)SC(=O)c1ccccc1)N(C=O)Cc1cnc(C)nc1N [benfotiamine]
7.68
